Taken from patent US11752139B2.

Settings: dose 200 mg/m^2
Readout Kind: Observed Mean (Cmax) (ng/mL)
Could you give me the number in ng/mL? Just the number is fine.

input: Hello, please tell me recorded Observed Mean (Cmax) for this one: CCc1c2c(nc3ccc(O)cc13)-c1cc3c(c(=O)n1C2)COC(=O)[C@]3(O)CC [Compound M1]
output: 23

###

Test: clinical
Details: human, in vivo, 20 mg/m2, Cmax
Readout Kind: Cmax (ng/mL)
Unit ng/mL implied. Number only.

input: Read off the recorded Cmax for CCc1c2c(nc3ccc(OC(=O)N4CCC(N5CCCCC5)CC4)cc13)-c1cc3c(c(=O)n1C2)COC(=O)[C@]3(O)CC [oral irinotecan, reference compound]
output: 31.9
